Sourced from ChEMBL document CHEMBL2203183

SYSTEM: Muscarinic acetylcholine receptor M4 (Homo sapiens)
Sequence (P08173 whole entry): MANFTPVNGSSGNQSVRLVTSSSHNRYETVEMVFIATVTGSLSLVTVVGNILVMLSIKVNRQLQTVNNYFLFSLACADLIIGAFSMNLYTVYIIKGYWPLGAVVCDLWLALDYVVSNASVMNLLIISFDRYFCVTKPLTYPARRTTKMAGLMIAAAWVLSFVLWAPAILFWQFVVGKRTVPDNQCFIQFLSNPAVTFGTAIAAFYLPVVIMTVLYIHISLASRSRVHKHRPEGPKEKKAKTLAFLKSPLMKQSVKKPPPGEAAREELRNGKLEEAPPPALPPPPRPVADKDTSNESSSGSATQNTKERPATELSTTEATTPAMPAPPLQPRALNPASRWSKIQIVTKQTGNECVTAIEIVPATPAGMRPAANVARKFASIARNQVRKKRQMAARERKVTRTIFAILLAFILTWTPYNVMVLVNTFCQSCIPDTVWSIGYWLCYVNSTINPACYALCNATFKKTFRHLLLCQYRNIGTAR
PROTOCOL: Displacement of [3H]QNB from human recombinant M4 receptor after 1.5 hrs by scintillation counting analysis
pKi: −log10 of the molar value.
PROPERTY NAME: pKi

stdin: # get_value(readout= pKi, system= Muscarinic acetylcholine receptor M4 (Homo sapiens)) for `COc1ccc2c(C)c(C(=O)N(CCCN3CCCCC3)c3ccccc3)oc2c1`
stdout: < 5.00

---

PROTOCOL: Displacement of [3H]DTG from sigma 2 receptor in rat PC12 cell membrane after 2 hrs by scintillation counting
Type: cell membranes
CONDITION: pc-12
Give Ki for every item shown.
Lab book: enter the figure in nM, no units written.

stdin: Entry `COc1ccc2c(C)c(C(=O)N(CCCN3CCCCC3)c3ccccc3)oc2c1` : reported Ki = ?
stdout: 41

stdin: Okay, and `Cc1c(C(=O)N(CCCN2CCCCC2)c2ccccc2)oc2ccccc12` ?
stdout: 16

stdin: Okay, and `COc1cc2oc(C(=O)N(CCCN3CCCCC3)c3ccccc3)c(C)c2cc1OC` ?
stdout: 528
